# experimental target: T1, Anti-CD28 Fab (SEQ ID NOs: 696, 697)
# T1 construct: In the phage ELISA the Fab was biotinylated and captured on neutravidin coated plates
# T1 sequence (VH, as listed by the source, chain 1 of 2): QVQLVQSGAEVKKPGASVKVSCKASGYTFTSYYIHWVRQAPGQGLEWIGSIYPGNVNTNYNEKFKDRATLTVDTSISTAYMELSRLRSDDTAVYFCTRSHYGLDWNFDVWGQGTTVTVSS
# T1 sequence (VL, as listed by the source, chain 2 of 2): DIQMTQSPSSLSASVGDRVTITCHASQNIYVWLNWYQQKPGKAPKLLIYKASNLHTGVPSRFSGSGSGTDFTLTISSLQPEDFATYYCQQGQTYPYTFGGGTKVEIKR
# measurement protocol: phage binding ELISA; clonal phage on plate-captured biotinylated anti-CD28 Fab
Overview of reported Anti-CD28 Fab (SEQ ID NOs: 696, 697) signal across a group of binders:
// return a plain number; no unit text

Look over these answered cases.
binder	data value
TCSAGASWAWPWCF [Phage-1408 (Peptide-92 library clone)]	2.03
TCAAGASYAWPWCL [Phage-1407 (Peptide-92 library clone)]	2.03

Lab note: measured Anti-CD28 Fab (SEQ ID NOs: 696, 697) signal of TCAAGANYPWPYCL [Phage-1416 (Peptide-92 library clone)] was 1.99

Lab note: measured Anti-CD28 Fab (SEQ ID NOs: 696, 697) signal of LCEEFADYPWPMCL [Phage-1412 (Peptide-92 library clone)] was 2.01

Per the records, this binder ( TCAAGATYKWPACL [Phage-1405 (Peptide-92 library clone)] ) has Anti-CD28 Fab (SEQ ID NOs: 696, 697) signal equal to 2.05

Recorded Anti-CD28 Fab (SEQ ID NOs: 696, 697) signal (binder TCAAGATYSWPMCF [Phage-1413 (Peptide-92 library clone)] ): 2

Measured Anti-CD28 Fab (SEQ ID NOs: 696, 697) signal, TCAAGAMWHWPVCL [Phage-1409 (Peptide-92 library clone)] : 2.03

Entry under test: GCAAGATYPWPSCL [Phage-1404 (Peptide-92 library clone)] . Its Anti-CD28 Fab (SEQ ID NOs: 696, 697) signal was 2.05

The reported Anti-CD28 Fab (SEQ ID NOs: 696, 697) signal of the binder MCSAGAMYPWPTCL [Phage-1406 (Peptide-92 library clone)] was 2.04

GET /value?item= LCAAGASYPWPTCL [Phage-1414 (Peptide-92 library clone)] &field=Anti-CD28 Fab (SEQ ID NOs: 696, 697) signal returns 2

For reference, reported Anti-CD28 Fab (SEQ ID NOs: 696, 697) signal for TCSAGATYVWPQCF [Phage-1403 (Peptide-92 library clone)] stands at 2.05

Lookup result for LCAAGFKYPWPLCL [Phage-1411 (Peptide-92 library clone)] ; measured Anti-CD28 Fab (SEQ ID NOs: 696, 697) signal: 2.02

So for TCSAGFHYEWPRCL [Phage-1410 (Peptide-92 library clone)] , the logged Anti-CD28 Fab (SEQ ID NOs: 696, 697) signal turned out to be 2.02

// field: Anti-CD28 Fab (SEQ ID NOs: 696, 697) signal; key: HCAAGAHYPWPACL [Phage-1415 (Peptide-92 library clone)] ; value = 2
